I'd be grateful if you could share measured AIRE transcriptional activation functional score for these entries.
B1: library; numbered along this chain (parent)
chain: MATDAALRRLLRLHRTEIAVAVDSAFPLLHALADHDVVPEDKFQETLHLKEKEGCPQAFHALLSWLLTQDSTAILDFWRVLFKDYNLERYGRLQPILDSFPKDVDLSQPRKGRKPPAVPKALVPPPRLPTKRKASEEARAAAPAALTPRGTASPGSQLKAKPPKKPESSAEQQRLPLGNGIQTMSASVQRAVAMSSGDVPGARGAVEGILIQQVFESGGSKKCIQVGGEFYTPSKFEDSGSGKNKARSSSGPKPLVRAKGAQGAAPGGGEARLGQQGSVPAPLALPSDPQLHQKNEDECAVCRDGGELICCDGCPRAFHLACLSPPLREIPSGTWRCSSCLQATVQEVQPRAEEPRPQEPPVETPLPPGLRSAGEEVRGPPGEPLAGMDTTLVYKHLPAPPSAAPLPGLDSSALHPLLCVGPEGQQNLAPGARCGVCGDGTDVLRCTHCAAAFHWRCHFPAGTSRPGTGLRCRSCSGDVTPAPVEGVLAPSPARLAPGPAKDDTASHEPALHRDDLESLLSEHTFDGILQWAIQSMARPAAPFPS

Variants of: B1
Test: AIRE transcriptional activation functional score (insulin promoter-GFP; nonsense median 0, synonymous median 1) (normalised score); higher = higher AIRE activity (more reporter activation)
Settings: with insulin promoter-GFP reporter in HEK293
The response must contain the number and no unit.

Form field AIRE transcriptional activation functional score, entry `T130F` : 1.71

Form field AIRE transcriptional activation functional score, entry `S241M` : 1.1

Form field AIRE transcriptional activation functional score, entry `S411M` : 1.37

Form field AIRE transcriptional activation functional score, entry `Q293M` : 0.829

Form field AIRE transcriptional activation functional score, entry `G462F` : 1.26

Form field AIRE transcriptional activation functional score, entry `L66S` : -0.186

Form field AIRE transcriptional activation functional score, entry `G527A` : 0.391

Form field AIRE transcriptional activation functional score, entry `L417E` : 0.739

Form field AIRE transcriptional activation functional score, entry `A413G` : 1.12

Form field AIRE transcriptional activation functional score, entry `V377G` : 1.16

Form field AIRE transcriptional activation functional score, entry `D478A` : 0.808

Form field AIRE transcriptional activation functional score, entry `A482T` : 0.312

Form field AIRE transcriptional activation functional score, entry `N179K` : 1.14

Form field AIRE transcriptional activation functional score, entry `G204D` : 0.621

Form field AIRE transcriptional activation functional score, entry `C446L` : 0.0671

Form field AIRE transcriptional activation functional score, entry `R272Q` : 0.947

Form field AIRE transcriptional activation functional score, entry `G274N` : 1

Form field AIRE transcriptional activation functional score, entry `S234I` : 0.96

Form field AIRE transcriptional activation functional score, entry `L320F` : 1.19

Form field AIRE transcriptional activation functional score, entry `P325I` : 1.07

Form field AIRE transcriptional activation functional score, entry `A170K` : 1.97

Form field AIRE transcriptional activation functional score, entry `S64W` : 0.42
